# Experimental Target: T1, Recombinant Human TNF-α/TNFSF1A (human, UniProt P01375 77-233)
# T1 construct: Bought reagent for Biacore; also called huTNFα
# T1 sequence (P01375 77-233 limits assumed): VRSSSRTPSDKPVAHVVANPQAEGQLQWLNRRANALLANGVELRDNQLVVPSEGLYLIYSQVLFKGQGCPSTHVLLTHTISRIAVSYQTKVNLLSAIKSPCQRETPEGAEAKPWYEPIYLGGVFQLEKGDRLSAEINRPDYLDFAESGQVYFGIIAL
# Assay Details: Biacore SPR
Readout Name: kon

// query kon value for entry AB214 (antibody, human IgG1, kappa, V domains shown, Parent anti-TNF antibody; also called AB214VH) VH: EVKLEESGGGLVQPGGSMKLSCVASGFIFSNHWMNWVRQSPEKGLEWVAEIRSKSINSATHYAESVKGRFTISRDDSKSAVYLQMTDLRTEDTGVYYCSRNYYGSTYDYWGQGTTLTVSS VL: DILLTQSPAILSVSPGERVSFSCRASQFVGSSIHWYQQRTNGSPRLLIKYASESMSGIPSRFSGSGSGTDFTLSINTVESEDIADYYCQESHSWPFTFGSGTNLEVKR
2.73e+06 M⁻¹ s⁻¹
